test system: Enterococcus faecium; test: Antibacterial activity against vancomycin-resistant Enterococcus faecium 419/ana clinical isolates after 24 hrs by microdilution method; format: functional
attribute measured: MIC (µg/mL)
Write the answer as a number in µg/mL, unit excluded.

Study these solved cases before continuing.
compound	MIC (µg/mL)
CCCCCCCCCCCCCCCOP(=O)(CCN(CCN)CCN)OC[C@H]1O[C@@H](n2ccc(=O)[nH]c2=O)[C@H](O)[C@@H]1O (stereo partly drawn)	100
CCCCCCCCCCCCCCCOP(=O)(CCN1C[C@@H](O)[C@@H](N)C1)OC[C@H]1O[C@@H](n2ccc(=O)[nH]c2=O)[C@H](O)[C@@H]1O (stereo partly drawn)	50
CCCCCCCCCCCCCOP(=O)(CCN(CCCNC(=N)N)CCCNC(=N)N)OC[C@H]1O[C@@H](n2ccc(=O)[nH]c2=O)[C@H](O)[C@@H]1O (stereo partly drawn)	50
CCCCCCCCCCCCCCCCOP(=O)(CCN(CCCN)CCCN)OC[C@H]1O[C@@H](n2ccc(=O)[nH]c2=O)[C@H](O)[C@@H]1O (stereo partly drawn)	25

q: Given the compound CCCCCCCCCCCCCCCCOP(=O)(CCN(CCNC(=N)N)CCNC(=N)N)OC[C@H]1O[C@@H](n2ccc(=O)[nH]c2=O)[C@H](O)[C@@H]1O (stereo partly drawn) , what is its reported MIC?
a: 50

q: Also CCCCCCCCCCCCCCCOP(=O)(CCN1CCC(N)C1)OC[C@H]1O[C@@H](n2ccc(=O)[nH]c2=O)[C@H](O)[C@@H]1O (stereo partly drawn) , if possible.
a: 25

q: Also CCCCCCCCCCCCCCCOP(=O)(CCN(CCCN)CCCN)OC[C@H]1O[C@@H](n2ccc(=O)[nH]c2=O)[C@H](O)[C@@H]1O (stereo partly drawn) , if possible.
a: 6.25

q: Also CCCCCCCCCCCCCCOP(=O)(CCN(CCCNC(=N)N)CCCNC(=N)N)OC[C@H]1O[C@@H](n2ccc(=O)[nH]c2=O)[C@H](O)[C@@H]1O (stereo partly drawn) , if possible.
a: 50

----------
MIC values for the compounds below.
test system: Escherichia coli; assay: Antibacterial activity against Escherichia coli CCM 3954 after 24 hrs by microdilution method; format: functional; conditions: CCM 3954, 24 h
Write the answer as a number in µg/mL, unit excluded.

q: Request - read-out MIC | tested on Escherichia coli | compound CCCCCCCCCCCCCCCOP(=O)(CCN(CCCNC(=N)N)CCCNC(=N)N)OC[C@H]1O[C@@H](n2ccc(=O)[nH]c2=O)[C@H](O)[C@@H]1O (stereo partly specified)
a: 0.78

q: Also CCCCCCCCCCCCCCCOP(=O)(CCN(CCNC(=N)N)CCNC(=N)N)OC[C@H]1O[C@@H](n2ccc(=O)[nH]c2=O)[C@H](O)[C@@H]1O (stereo partly specified) , if possible.
a: 3.13

q: Also CCCCCCCCCCCCCCCCOP(=O)(CCN(CCCNC(=N)N)CCCNC(=N)N)OC[C@H]1O[C@@H](n2ccc(=O)[nH]c2=O)[C@H](O)[C@@H]1O (stereo partly specified) , if possible.
a: 1.56

q: Also CCCCCCCCCCCCCCOP(=O)(CCN1CCC(N)C1)OC[C@H]1O[C@@H](n2ccc(=O)[nH]c2=O)[C@H](O)[C@@H]1O (stereo partly specified) , if possible.
a: 3.13

q: Also CCCCCCCCCCCCCOP(=O)(CCN(CCCN)CCCN)OC[C@H]1O[C@@H](n2ccc(=O)[nH]c2=O)[C@H](O)[C@@H]1O (stereo partly specified) , if possible.
a: 25

q: Also CCCCCCCCCCCCCCOP(=O)(CCN(CCCNC(=N)N)CCCNC(=N)N)OC[C@H]1O[C@@H](n2ccc(=O)[nH]c2=O)[C@H](O)[C@@H]1O (stereo partly specified) , if possible.
a: 3.13

----------
MIC values for the compounds below.
system: Pseudomonas aeruginosa; assay: Antibacterial activity against Pseudomonas aeruginosa 16575 after 24 hrs by microdilution method; type: functional; details: Pseudomonas aeruginosa, 16575, 24 h
Write the answer as a number in µg/mL, unit excluded.

Study these solved cases before continuing.
compound	MIC [µg/mL]
CCCCCCCCCCCCCCCCOP(=O)(CCN(CCCN)CCCN)OC[C@H]1O[C@@H](n2ccc(=O)[nH]c2=O)[C@H](O)[C@@H]1O (stereo not given in full)	3.13
CCCCCCCCCCCCCCCOP(=O)(CCN1C[C@@H](O)[C@@H](N)C1)OC[C@H]1O[C@@H](n2ccc(=O)[nH]c2=O)[C@H](O)[C@@H]1O (stereo not given in full)	12.5
CCCCCCCCCCCCCCOP(=O)(CCN(CCCNC(=N)N)CCCNC(=N)N)OC[C@H]1O[C@@H](n2ccc(=O)[nH]c2=O)[C@H](O)[C@@H]1O (stereo not given in full)	6.25
CCCCCCCCCCCCCCCOP(=O)(CCN(CCCNC(=N)N)CCCNC(=N)N)OC[C@H]1O[C@@H](n2ccc(=O)[nH]c2=O)[C@H](O)[C@@H]1O (stereo not given in full)	1.56

q: Request - read-out MIC | tested on Pseudomonas aeruginosa | compound CCCCCCCCCCCCCCCCOP(=O)(CCN(CCN)CCN)OC[C@H]1O[C@@H](n2ccc(=O)[nH]c2=O)[C@H](O)[C@@H]1O (stereo not given in full)
a: 3.13
